- System: HLA-A*02:01;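 further: lysates heated 10 min at 37–73 °C, complexes pulled down with pan-HLA I antibody, peptide signal by DIA-MS relative to 37 °C, Tm where half the complex is unfolded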
- Assay: thermal melting temperature (Tm) of peptide-HLA complex; higher = more thermostable pHLA complex
- Condition notes: C1R-A*02:01
Whole data set: some 1,100 sequences, median “thermal melting temperature (Tm) of peptide-HLA complex” near 58, cut for the lowest 2% near 42. This excerpt belongs to a sample that is enriched for the lowest values.
Note to self: values exactly at 60 °C are Criterion met. So thermal melting temperature at or above 60 °C is Criterion met, below is Criterion not met.

(Q) # check: thermal melting temperature of QLQGYLRSV is greater than or equal to 60 °C
(A) Criterion not met

(Q) Can KVLEVTEEFGV be said to have thermal melting temperature at or above 60 °C?
(A) Criterion met

(Q) Identify whether the reported thermal melting temperature of the following sequence is 60 °C or greater: VLMTQQPRPVL
(A) Criterion not met

(Q) For this sequence, is measured thermal melting temperature 60 °C or higher? YLKDLIEEV
(A) Criterion met

(Q) Decide: thermal melting temperature of LLVDVEPKV >= 60 °C?
(A) Criterion not met
